# credit: ChEMBL document CHEMBL1125564

- target: Alpha-1A adrenergic receptor (Rattus norvegicus, UniProt P43140)
- assayProcedure: Displacement of [3H]prazosin from Alpha-1 adrenergic receptor in whole rat brain membranes
pIC50: −log10 of the molar value.
Label NO if pIC50 falls below 7; label YES in every other case.

compound: O=C1NCCN1CCN1CCC(n2cc(-c3ccc(F)cc3)c3ccccc32)CC1
className: YES
//
compound: O=C1NCCN1CCN1CCC(n2cc(-c3ccc(F)cc3)c3cc(C(F)(F)F)ccc32)CC1
className: NO
//
compound: Cc1ccc2c(c1)c(-c1ccc(F)cc1)c(C)n2C1=CCN(CCN2CCNC2=O)CC1
className: NO
//
compound: Cc1ccc2c(c1)c(-c1ccc(F)cc1)c(C)n2C1CCN(CCN2CCNC2=O)CC1
className: NO
//
compound: O=C1NCCN1CCN1CCC(c2cn(-c3ccc(F)cc3)c3ccc(Cl)cc23)CC1 [SERTINDOLE]
className: YES
//
compound: Cc1cccc2c(-c3ccc(F)cc3)cn(C3=CCN(CCN4CCNC4=O)CC3)c12
className: YES
//
compound: CNC(=O)N(C)CCN1CCC(n2cc(-c3ccc(F)cc3)c3cc(C)ccc32)CC1
className: YES
//
compound: Cc1ccc2c(c1)c(-c1ccc(F)cc1)cn2N1CCN(C)CC1
className: NO
//
compound: Cc1ccc2c(c1)c(-c1ccc(F)cc1)cn2C1=CCN(CCN2CCNC2=O)CC1
className: YES

---

- target: Alpha-1A adrenergic receptor (Rattus norvegicus)
- Sequence (P43140 whole entry): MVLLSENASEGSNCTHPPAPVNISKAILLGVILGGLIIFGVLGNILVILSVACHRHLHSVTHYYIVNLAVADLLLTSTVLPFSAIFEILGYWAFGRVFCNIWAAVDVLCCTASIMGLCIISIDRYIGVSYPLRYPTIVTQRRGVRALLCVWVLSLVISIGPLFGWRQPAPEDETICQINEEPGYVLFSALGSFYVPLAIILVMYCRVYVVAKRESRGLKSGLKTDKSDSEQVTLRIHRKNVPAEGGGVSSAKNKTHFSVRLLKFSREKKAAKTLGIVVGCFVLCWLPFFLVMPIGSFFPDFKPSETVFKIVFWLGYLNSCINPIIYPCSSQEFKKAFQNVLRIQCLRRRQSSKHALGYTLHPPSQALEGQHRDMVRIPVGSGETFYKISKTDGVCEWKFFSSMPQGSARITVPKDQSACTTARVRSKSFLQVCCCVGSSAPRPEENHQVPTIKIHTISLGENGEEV
- assayProcedure: Displacement of [3H]prazosin from Alpha-1 adrenergic receptor in whole rat brain membranes
One threshold, 70 nM, splits the recorded IC50 values: lower ones are label 1, equal or higher ones are label 0.

structureSmiles: O=C1NCCN1CCN1CCC(n2cc(-c3ccc(F)cc3)c3ccc(Cl)cc32)CC1
target: Alpha-1A adrenergic receptor (Rattus norvegicus)
className: label 1
//
structureSmiles: Cc1ccc2c(c1)c(-c1ccc(F)cc1)c(C)n2C1CCN(C)CC1
target: Alpha-1A adrenergic receptor (Rattus norvegicus)
className: label 0
//
structureSmiles: Cc1cccc2c1c(-c1ccc(F)cc1)cn2C1CCN(CCN2CCNC2=O)CC1
target: Alpha-1A adrenergic receptor (Rattus norvegicus)
className: label 1
//
structureSmiles: Cc1ccc2c(c1)c(-c1ccc(F)cc1)cn2C1CCN(C)CC1
target: Alpha-1A adrenergic receptor (Rattus norvegicus)
className: label 0
//
structureSmiles: Cc1cccc2c(-c3ccc(F)cc3)cn(C3CCN(CCN4CCNC4=O)CC3)c12
target: Alpha-1A adrenergic receptor (Rattus norvegicus)
className: label 1
//
structureSmiles: O=C1NCCN1CCN1CCC(n2cc(-c3ccc(F)cc3)c3cc(F)ccc32)CC1
target: Alpha-1A adrenergic receptor (Rattus norvegicus)
className: label 1
//
structureSmiles: Cc1ccc2c(c1)c(-c1ccc(F)cc1)cn2C1CCN(CCNC(=O)N(C)C)CC1
target: Alpha-1A adrenergic receptor (Rattus norvegicus)
className: label 0
//
structureSmiles: Cc1ccc2c(c1)c(-c1ccc(F)cc1)cn2C1CCN(CCN2CCN(C(C)C)C2=O)CC1
target: Alpha-1A adrenergic receptor (Rattus norvegicus)
className: label 0

---

The entries below come with measured IC50 values attached.
- target: Serotonin 2 (5-HT2) receptor (Rattus norvegicus, UniProt P30994+P08909+P14842)
- assayProcedure: Displacement of [3H]ketanserin from 5-hydroxytryptamine 2 receptor in rat cortical membranes
- Format: cell membranes, Membrane

structureSmiles: Cc1cccc2c(-c3ccc(F)cc3)cn(C3=CCN(CCN4CCNC4=O)CC3)c12
IC50 (nM): 5.8
--
structureSmiles: O=C1NCCN1CCN1CCC(n2cc(-c3ccc(F)cc3)c3cc(Cl)ccc32)CC1
IC50 (nM): 5.7
--
structureSmiles: O=C1NCCN1CCN1CCC(n2cc(-c3ccc(F)cc3)c3ccccc32)CC1
IC50 (nM): 3.1
--
structureSmiles: Cc1ccc2c(c1)c(-c1ccc(F)cc1)cn2C1CCN(C)CC1
IC50 (nM): 4.5
--
structureSmiles: Cc1ccc2c(c1)c(-c1ccc(F)cc1)c(C)n2C1=CCN(CCN2CCNC2=O)CC1
IC50 (nM): 2.8
--
structureSmiles: Cc1ccc2c(c1)c(-c1ccc(F)cc1)c(C)n2C1CCN(C)CC1
IC50 (nM): 5.3
--
structureSmiles: O=C1NCCN1CCN1CCC(n2cc(-c3ccc(F)cc3)c3ccc(Cl)cc32)CC1
IC50 (nM): 1.9
--
structureSmiles: Cc1cccc2c(-c3ccc(F)cc3)cn(C3CCN(CCN4CCNC4=O)CC3)c12
IC50 (nM): 3.6
--
structureSmiles: Cc1ccc2c(c1)c(-c1ccc(F)cc1)cn2C1CCN(CCN2CCN(C(C)C)C2=O)CC1
IC50 (nM): 2.7
--
structureSmiles: Cc1ccc2c(c1)c(-c1ccc(F)cc1)c(C)n2C1CCN(CCN2CCNC2=O)CC1
IC50 (nM): 3.4
--
structureSmiles: Cc1ccc2c(c1)c(-c1ccc(F)cc1)cn2C1CCN(CCNC(=O)N(C)C)CC1
IC50 (nM): 2.3
--
structureSmiles: CNC(=O)N(C)CCN1CCC(n2cc(-c3ccc(F)cc3)c3cc(C)ccc32)CC1
IC50 (nM): 2.2
--
structureSmiles: O=C1NCCN1CCN1CCC(n2cc(-c3ccc(F)cc3)c3cc(C(F)(F)F)ccc32)CC1
IC50 (nM): 9.3
--
structureSmiles: Cc1ccc2c(c1)c(-c1ccc(F)cc1)cn2N1CCN(C)CC1
IC50 (nM): 15
--
structureSmiles: Cc1ccc2c(c1)c(-c1ccc(F)cc1)cn2C1CCN(CCN2CCNC2=O)CC1
IC50 (nM): 1.6
--
structureSmiles: O=C1NCCN1CCN1CCC(n2cc(-c3ccc(F)cc3)c3cc(F)ccc32)CC1
IC50 (nM): 3.2
--
structureSmiles: Cc1cccc2c1c(-c1ccc(F)cc1)cn2C1CCN(CCN2CCNC2=O)CC1
IC50 (nM): 7.9
--
structureSmiles: Cc1ccc2c(c1)c(-c1ccc(F)cc1)cn2C1=CCN(CCN2CCNC2=O)CC1
IC50 (nM): 1.5

---

# pIC50 per record follows
- target: D(2) dopamine receptor (Rattus norvegicus, UniProt P61169)
- Sequence (P61169 whole entry): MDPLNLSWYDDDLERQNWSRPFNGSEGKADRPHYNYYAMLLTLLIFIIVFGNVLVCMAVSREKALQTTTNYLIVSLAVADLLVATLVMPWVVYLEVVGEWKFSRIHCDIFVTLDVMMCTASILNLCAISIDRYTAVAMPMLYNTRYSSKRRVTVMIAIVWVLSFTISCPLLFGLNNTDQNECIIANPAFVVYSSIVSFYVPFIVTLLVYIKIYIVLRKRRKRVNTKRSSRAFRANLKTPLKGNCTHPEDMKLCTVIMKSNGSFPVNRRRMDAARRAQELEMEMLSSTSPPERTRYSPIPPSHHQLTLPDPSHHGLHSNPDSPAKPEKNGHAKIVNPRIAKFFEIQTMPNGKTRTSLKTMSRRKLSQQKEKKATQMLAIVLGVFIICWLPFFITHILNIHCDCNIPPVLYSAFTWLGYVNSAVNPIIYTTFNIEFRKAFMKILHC
- assayProcedure: Displacement of [3H]spiperone from Dopamine receptor D2 rat striatal membranes
pIC50: −log10 of the molar value.

structureSmiles: Cc1cccc2c1c(-c1ccc(F)cc1)cn2C1CCN(CCN2CCNC2=O)CC1
pIC50: 6.70
//
structureSmiles: Cc1cccc2c(-c3ccc(F)cc3)cn(C3=CCN(CCN4CCNC4=O)CC3)c12
pIC50: 6.28
//
structureSmiles: Cc1ccc2c(c1)c(-c1ccc(F)cc1)cn2C1=CCN(CCN2CCNC2=O)CC1
pIC50: 6.55
//
structureSmiles: CNC(=O)N(C)CCN1CCC(n2cc(-c3ccc(F)cc3)c3cc(C)ccc32)CC1
pIC50: 5.92
//
structureSmiles: O=C1NCCN1CCN1CCC(n2cc(-c3ccc(F)cc3)c3cc(C(F)(F)F)ccc32)CC1
pIC50: 5.60
//
structureSmiles: Cc1cccc2c(-c3ccc(F)cc3)cn(C3CCN(CCN4CCNC4=O)CC3)c12
pIC50: 6.43
